The measurements presented in this section are drawn from ChEMBL document CHEMBL2057112.

test system: Human immunodeficiency virus 1; test: Antiviral activity against Human immunodeficiency virus 1 HXB2 expressing protease M7 mutant infected in human MT4 cells after 5 days by MTT assay; type: functional, organism-based; conditions: Human immunodeficiency virus 1, HXB2, MT4, 120 h
pIC50: −log10 of the molar value.

molecule	pIC50
CC(C)CN(C[C@@H](O)[C@H](Cc1ccccc1)NC(=O)O[C@H]1CO[C@H]2OCC[C@H]21)S(=O)(=O)c1ccc2c(c1)CCN2	8.12
CC(C)CN(C[C@@H](O)[C@H](Cc1ccccc1)NC(=O)O[C@H]1CO[C@H]2OCC[C@H]21)S(=O)(=O)c1ccc2c(c1)C(=CNCCC(C)(C)C)C(=O)N2 (mixture of isomers)	8.49
CC(C)CN(C[C@@H](O)[C@H](Cc1ccccc1)NC(=O)O[C@H]1CO[C@H]2OCC[C@H]21)S(=O)(=O)c1ccc(N)cc1	8.49
CC(C)CN(C[C@@H](O)[C@H](Cc1ccccc1)NC(=O)O[C@H]1CO[C@H]2OCC[C@H]21)S(=O)(=O)c1ccc2c(c1)C(=CNCC(C)(C)C)C(=O)N2 (mixture of isomers)	8.82
CCCCNC=C1C(=O)Nc2ccc(S(=O)(=O)N(CC(C)C)C[C@@H](O)[C@H](Cc3ccccc3)NC(=O)O[C@H]3CO[C@H]4OCC[C@H]43)cc21 (mixture of isomers)	8.30

###

test system: Human immunodeficiency virus 1; experiment: Antiviral activity against Human immunodeficiency virus 1 HXB2 expressing protease M8 mutant infected in human MT4 cells after 5 days by MTT assay; type: functional, organism-based; conditions: Human immunodeficiency virus 1, HXB2, MT4, 120 h
pIC50: −log10 of the molar value.
parameter: pIC50

compound	value
CC(C)CN(C[C@@H](O)[C@H](Cc1ccccc1)NC(=O)O[C@H]1CO[C@H]2OCC[C@H]21)S(=O)(=O)c1ccc2c(c1)CC(=O)N2	6.82
CC(C)CNC=C1C(=O)Nc2ccc(S(=O)(=O)N(CC(C)C)C[C@@H](O)[C@H](Cc3ccccc3)NC(=O)O[C@H]3CO[C@H]4OCC[C@H]43)cc21 (mixture of isomers)	7.80
CC(C)CN(C[C@@H](O)[C@H](Cc1ccccc1)NC(=O)O[C@H]1CO[C@H]2OCC[C@H]21)S(=O)(=O)c1ccc2c(c1)C(=CNCCC(C)(C)C)C(=O)N2 (mixture of isomers)	7.64
